# Target Or System: recombinant human Bcl-2-G101V protein (Homo sapiens (Human), UniProt P10415, G101V)
# Procedure Details: Bcl-2-G101V TR-FRET Assay
# Format: binding
# Test Context: Bcl-2 G101V mutant, TR-FRET; read-out: Biochemical assay (IC50, nM) Bcl-2 G101V
Could you please report measured IC50 for the items listed next?
Numbers only, in nM.

1. CC(C)c1ccccc1C1CN(Cc2ccc(C3CC3)cc2)CCN1C1CC2(CCN(c3ccc(C(=O)NS(=O)(=O)c4ccc(NC[C@H]5CC[C@](C)(O)CC5)c([N+](=O)[O-])c4)c(Oc4cnc5[nH]cc(F)c5c4)c3)CC2)C1 (stereo partly shown)    6

Give IC50 for all compounds that follow.
1. COc1ccc(CN2CCN(C3CC4(CCN(c5ccc(C(=O)NS(=O)(=O)c6ccc(NC[C@H]7CC[C@](C)(O)CC7)c([N+](=O)[O-])c6)c(Oc6cnc7[nH]ccc7c6)c5)CC4)C3)C(c3ccccc3CN3CCOCC3)C2)cc1 (stereo partly shown)
2. C#Cc1ccc(CN2CCN(C3CC4(CCN(c5ccc(C(=O)NS(=O)(=O)c6ccc(NC[C@H]7CC[C@](C)(O)CC7)c([N+](=O)[O-])c6)c(Oc6cnc7[nH]ccc7c6)c5)CC4)C3)C(c3ccccc3C(C)C)C2)cc1 (stereo partly shown)

1. 12
2. 3

Please give the documented IC50 of CCOc1ccc(CN2CCN(C3CC4(CCN(c5ccc(C(=O)NS(=O)(=O)c6ccc(NC[C@H]7CC[C@](C)(O)CC7)c([N+](=O)[O-])c6)c(Oc6cnc7[nH]ccc7c6)c5)CC4)C3)C(c3ccccc3C(C)C)C2)cc1 (stereo partly shown)
1.3
